test system: Pseudomonas aeruginosa strain H1001 fliC::luxCDABE; experiment: Luminescence-based assay for the non-cleaved (bound) peptides on cellulose membranes; assay type: cell-based; settings: cellulose-bound peptide, 20 min
Ends that are not written are not given here.
endpoint: Luminescence at the given time in minutes: 20 (RLU)

substance | obs_value
RRLVAIVAVRRI [Bac007] | 7157
RVLIVIRARRVA-NH2 (C-terminus assumed) [Bac043] | 6385
RARIVRVRVILA [Bac016] | 6362
VARIVVRLIRAR [Bac013] | 6850
RVLRVVRAAIRI [Bac035] | 6461
IARRIVAVRLRV [Bac026] | 6389
RAIIRRVLVRVA [Bac024] | 7630
IILAVRAVRRVR [Bac029] | 6664
RRVAIVVIARLR [Bac018] | 6080
